- system_under_test: T1, human IL-17A/IL-17F heterodimer (human, UniProt Q16552 24-155; Q96PD4 31-163, limits assumed)
- T1 sequence (looked up) 1: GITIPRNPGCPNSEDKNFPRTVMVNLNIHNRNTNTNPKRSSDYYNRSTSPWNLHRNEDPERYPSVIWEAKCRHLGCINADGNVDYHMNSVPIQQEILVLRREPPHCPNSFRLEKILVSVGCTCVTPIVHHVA
- T1 sequence (looked up) 2: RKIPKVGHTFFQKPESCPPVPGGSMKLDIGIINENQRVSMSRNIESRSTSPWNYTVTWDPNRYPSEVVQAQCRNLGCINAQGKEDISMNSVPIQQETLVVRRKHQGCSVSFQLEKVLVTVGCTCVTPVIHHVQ
- method: cell-based or functional assay
readout_name: IC50, IL-6 secretion by MEF cells, cytokine at 17.5 ng/ml (nM)
Field: numeric (nM). Do not append units.

[Q] Can you look up the measured IC50, IL-6 secretion by MEF cells, cytokine at 17.5 ng/ml of 31A3 antibody (antibody, IgG1, V domains shown) VH: QVQLVQSGAEVKKPGASVKVSCKASVYTFTTYGISWVRQAPGQGLEWMGWITVYNGNTNYAQKFHGRVTMTTDTSTSTAYMELRSLRSDDTAVYYCASFHGGHSGYHYGLDVWGQGTTVTVSS VL: EIVLTQSPATLSLSPGERATLSCRASQSVSSYLAWYQQKPGQAPRLLIYDASNRATGIPARFSGSGSGTDFTLTISSLEPEDFAVYYCQQRSNWPPYTFGQGTKLEIK for me?
[A] 9.2

[Q] What do you get for 30D12 antibody (antibody, IgG1, V domains shown, Fully human monoclonal antibody; also called 30D12 IgG1) VH: QVQLVQSGAEVKKPGASVKVSCKASGYTFTSYDINWVRQATGQGLEWMGWMNPDSGVIRYAQKFQGRVTMTRNTSISTAYMELNSLRSEDTAVYYCAREWFGELPSYYFYSGMDVWGQGTTVTVSS VL: EIVLTQSPATLSLSPGERATLSCRASQSVSSYLAWYQQKPGQAPRLLIYDASNRATGIPARFSGSGSGTDFTLTISSLEPEDFAVYYCQQRSNWPPTFGPGTKVDIK ?
[A] 31
